Data origin: patent US9255072B2

study target: Aurora A (Homo sapiens)
Construct: GST-Aurora A (residues S123-S401); GST (N); made in house; host or cells: Sf9 insect cells
protocol summary: Aurora kinase A Kinase-Glo kinase assay
Assay type: biochemical
applied conditions: Aurora A assay, 5 μM ATP, bound in nM; read-out: IC50
Each entry below carries its reported IC50.
measured property: IC50

* Cc1cc(-c2cc(NC(=O)c3ccc(OCCN4CCOCC4)cc3)[nH]n2)ccc1NC(=O)Nc1cc(C2CC2)on1 [Compound 46c] | < 200 nM
* CC(C)(C)c1cc(NC(=O)Nc2ccc(-c3cc(NC(=O)c4ccc(OCCN5CCOCC5)cc4)[nH]n3)cc2)no1 | < 200 nM
* CN1CCN(c2ccc(C(=O)Nc3cc(-c4ccc(NC(=O)c5ccccc5)cc4)n[nH]3)cc2)CC1 | < 200 nM

====

study target: Aurora A (Homo sapiens)
Construct: GST-Aurora A (residues S123-S401); GST (N); made in house; host or cells: Sf9 insect cells
Sequence (O14965 123-401): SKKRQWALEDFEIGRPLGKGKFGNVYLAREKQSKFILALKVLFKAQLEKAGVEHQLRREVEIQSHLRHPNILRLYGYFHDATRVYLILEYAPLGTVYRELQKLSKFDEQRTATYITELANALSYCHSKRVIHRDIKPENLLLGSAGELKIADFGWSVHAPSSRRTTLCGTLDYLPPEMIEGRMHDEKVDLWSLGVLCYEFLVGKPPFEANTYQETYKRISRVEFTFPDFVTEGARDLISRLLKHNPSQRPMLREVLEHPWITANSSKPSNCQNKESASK
protocol summary: Aurora kinase A Kinase-Glo kinase assay
Assay type: biochemical
applied conditions: table of representative values; read-out: IC50 (nM) Aurora A
Measured IC50 of individual entries
measured property: IC50 (nM)

• CCc1cc(NC(=O)Nc2ccc(-c3cnc(Nc4cc(N5CCC(N)C5)nc(C)n4)s3)cc2)no1 (centres unmarked) = 38
• Cc1cc(-c2cc(NC(=O)c3ccc(OCCN4CCOCC4)cc3)[nH]n2)ccc1NC(=O)Nc1cc(C2CC2)on1 [Compound 46c] = 41
• CCc1cc(NC(=O)Nc2ccc(-c3cnc(Nc4cc(N5CCN(CC)CC5)nc(C)n4)s3)cc2)no1 = 32
• CCc1cc(NC(=O)Nc2ccc(-c3cc(NC(=O)c4ccc(OCCN5CCOCC5)cc4)[nH]n3)cc2C)no1 [Compound 46b] = 22

====

Listing of recorded IC50 by entry.
study target: VEGFR2 (Homo sapiens)
Construct: GST-VEGFR2 (residues V789-V1356); GST (N); made in house; host or cells: Sf9 insect cells
Sequence (P35968 789-1356): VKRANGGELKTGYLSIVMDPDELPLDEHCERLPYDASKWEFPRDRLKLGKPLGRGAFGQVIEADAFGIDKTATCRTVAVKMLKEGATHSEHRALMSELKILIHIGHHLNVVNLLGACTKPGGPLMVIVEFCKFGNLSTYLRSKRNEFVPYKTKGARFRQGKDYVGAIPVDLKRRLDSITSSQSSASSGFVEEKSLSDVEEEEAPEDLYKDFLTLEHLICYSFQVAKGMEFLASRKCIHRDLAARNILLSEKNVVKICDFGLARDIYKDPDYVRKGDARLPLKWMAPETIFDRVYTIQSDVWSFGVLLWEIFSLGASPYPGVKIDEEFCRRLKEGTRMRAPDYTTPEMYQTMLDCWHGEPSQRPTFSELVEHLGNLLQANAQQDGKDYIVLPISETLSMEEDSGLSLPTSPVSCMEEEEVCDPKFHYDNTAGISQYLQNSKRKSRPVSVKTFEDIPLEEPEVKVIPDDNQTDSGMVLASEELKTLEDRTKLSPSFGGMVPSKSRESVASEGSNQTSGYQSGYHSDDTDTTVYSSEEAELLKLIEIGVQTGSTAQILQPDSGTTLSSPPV
protocol summary: VEGFR2 Kinase-Glo kinase assay
Type: biochemical
applied conditions: table of representative values; read-out: IC50 (nM) VEGFR2
measured property: IC50 (nM)

- CCc1cc(NC(=O)Nc2ccc(-c3cc(NC(=O)c4ccc(OCCN5CCOCC5)cc4)[nH]n3)cc2C)no1 [Compound 46b]: 151
- CCc1cc(NC(=O)Nc2ccc(-c3cnc(Nc4cc(N5CCN(CC)CC5)nc(C)n4)s3)cc2)no1: 25
- CCc1cc(NC(=O)Nc2ccc(-c3cnc(Nc4cc(N5CCC(N)C5)nc(C)n4)s3)cc2)no1 (stereo not shown): 7
- CN1CCN(Cc2ccc(C(=O)Nc3cc(-c4ccc(CNC(=O)Nc5cc(C6CC6)on5)cc4)n[nH]3)cc2)CC1 [Compound 62d]: 23
- CCc1cc(NC(=O)NCc2ccc(-c3cc(NC(=O)c4ccc(CN5CCN(C)CC5)cc4)[nH]n3)cc2)no1 [Compound 62b]: 37
- O=C(NCc1ccc(-c2cc(NC(=O)c3ccc(OCCN4CCOCC4)cc3)[nH]n2)cc1)Nc1cc(C2CC2)on1 [Compound 59d]: 45
- Cc1cc(-c2cc(NC(=O)c3ccc(OCCN4CCOCC4)cc3)[nH]n2)ccc1NC(=O)Nc1cc(C2CC2)on1 [Compound 46c]: 37
